Data origin: the supplement of paper PMC11628255

System: firefly luciferase (FLuc)
method summary: normalised percent inhibition of luminescence (vs positive and negative controls); higher = stronger inhibition
conditions used: metal salt concentration 0.5 mM; screening conditions buffer
Measured normalised percent inhibition values are reported for all entries that follow.

As a guide, the following entries are already answered.
| molecule | normalised percent inhibition |
| --- | --- |
| O=[N+]([O-])[O-].O=[N+]([O-])[O-].[Zn+2] [zinc nitrate] | 29.1% |
| [Cl][Pt-2]([Cl])([Cl])[Cl].[K+].[K+] [potassium tetrachloroplatinate(II)] | 100% |
| [Cl][Fe][Cl] [iron(II) chloride] | 98% |
| [Cl][Fe]([Cl])[Cl] [iron(III) chloride] | 100% |

Ask: Query: normalised percent inhibition; subject: CC#N.CC#N.CC#N.CC#N.F[B-](F)(F)F.[Cu+] [tetrakis(acetonitrile)copper(I) tetrafluoroborate]
Result: 56.9%

Ask: Input [Cl][Sn][Cl] [tin(II) chloride]
Result: 101%

Ask: Input O=S(=O)([O-])[O-].[Fe+2] [iron(II) sulfate]
Result: 94.1%

* * *

System: NanoLuc luciferase (NLuc)
method summary: normalised percent inhibition of luminescence (vs positive and negative controls); higher = stronger inhibition
conditions used: metal salt concentration 0.00025 mM; 100 mM HEPES buffer
property: normalised percent inhibition (%)
Write the answer as a number in %, unit excluded.

As a guide, the following entries are already answered.
| compound | assay target | unit annotation | result |
| --- | --- | --- | --- |
| [Cl][Sn][Cl] [tin(II) chloride] | NanoLuc luciferase (NLuc) | % | -2.95 |
| O=[N+]([O-])[O-].O=[N+]([O-])[O-].[Cd+2] [cadmium nitrate] | NanoLuc luciferase (NLuc) | % | -0.623 |

Next:
Ask: Query: normalised percent inhibition; subject: [Cl][Fe]([Cl])[Cl] [iron(III) chloride]
Result: -4.27

* * *

Test system: NanoLuc luciferase (NLuc)
method summary: normalised percent inhibition of luminescence (vs positive and negative controls); higher = stronger inhibition
conditions used: metal salt concentration 1 mM; 100 mM HEPES buffer
Measured normalised percent inhibition values are reported for all entries that follow.
Write the answer as a number in %, unit excluded.

As a guide, the following entries are already answered.
| compound | normalised percent inhibition / % |
| --- | --- |
| CC#N.CC#N.CC#N.CC#N.F[B-](F)(F)F.[Cu+] [tetrakis(acetonitrile)copper(I) tetrafluoroborate] | 102 |
| [Cl][Fe]([Cl])[Cl] [iron(III) chloride] | 101 |
| O=[N+]([O-])[O-].[Ag+] [silver nitrate] | 102 |
| [Cl][Fe][Cl] [iron(II) chloride] | 85.4 |
| [Cl][Sn][Cl] [tin(II) chloride] | -2.37 |

Ask: Can you look up normalised percent inhibition on NanoLuc luciferase (NLuc) for [Cl][Pt-2]([Cl])([Cl])[Cl].[K+].[K+] [potassium tetrachloroplatinate(II)] ?
Result: 87.7

Ask: Input O=[N+]([O-])[O-].O=[N+]([O-])[O-].[Cd+2] [cadmium nitrate]
Result: 24.8

Ask: Input O.O.O.O.O.O.O.O=S(=O)([O-])[O-].[Mg+2] [magnesium sulfate]
Result: -4.91

Ask: Input O=[N+]([O-])[O-].O=[N+]([O-])[O-].[Cu+2] [copper(II) nitrate]
Result: 102

Ask: Input O=S(=O)([O-])[O-].[Fe+2] [iron(II) sulfate]
Result: 87.7
